Parameter melting point: see the listing below.

Illustrative cases are given below, each with its answer.
Input: Answer with reported melting point of `COc1ccc(C2=NN(C(=O)c3cccnc3)CC2)c(OC)c1`
Output: 112 to 113 °C

Input: Answer with reported melting point of `Cc1ccc(C2=NN(C(=O)c3cccnc3)CC2)c(C)c1`
Output: 102 to 104 °C

Input: Answer with reported melting point of `O=C(c1cccnc1)N1CCC(c2ccc(F)cc2)=N1`
Output: 128 to 130 °C

Input: Answer with reported melting point of `COc1ccc(C2=NN(C(=O)c3cccnc3)CC2)cc1`
Output: 132 to 134 °C

Next item in the queue.
Input: Answer with reported melting point of O=C(c1cnccn1)N1CC2CSc3ccccc3C2=N1 (centres unmarked)
Output: 190 to 192 °C
